target: BRM (Homo sapiens, UniProt P51531); construct: made in house; host or cells: High Five insect cells; assay: ATPase catalytic activity of BRM, ADP-Glo in vitro biochemical assay; conditions: ADP-Glo ATPase assay, 30 nM BRM, 400 μM ATP
Sequence (P51531 whole entry): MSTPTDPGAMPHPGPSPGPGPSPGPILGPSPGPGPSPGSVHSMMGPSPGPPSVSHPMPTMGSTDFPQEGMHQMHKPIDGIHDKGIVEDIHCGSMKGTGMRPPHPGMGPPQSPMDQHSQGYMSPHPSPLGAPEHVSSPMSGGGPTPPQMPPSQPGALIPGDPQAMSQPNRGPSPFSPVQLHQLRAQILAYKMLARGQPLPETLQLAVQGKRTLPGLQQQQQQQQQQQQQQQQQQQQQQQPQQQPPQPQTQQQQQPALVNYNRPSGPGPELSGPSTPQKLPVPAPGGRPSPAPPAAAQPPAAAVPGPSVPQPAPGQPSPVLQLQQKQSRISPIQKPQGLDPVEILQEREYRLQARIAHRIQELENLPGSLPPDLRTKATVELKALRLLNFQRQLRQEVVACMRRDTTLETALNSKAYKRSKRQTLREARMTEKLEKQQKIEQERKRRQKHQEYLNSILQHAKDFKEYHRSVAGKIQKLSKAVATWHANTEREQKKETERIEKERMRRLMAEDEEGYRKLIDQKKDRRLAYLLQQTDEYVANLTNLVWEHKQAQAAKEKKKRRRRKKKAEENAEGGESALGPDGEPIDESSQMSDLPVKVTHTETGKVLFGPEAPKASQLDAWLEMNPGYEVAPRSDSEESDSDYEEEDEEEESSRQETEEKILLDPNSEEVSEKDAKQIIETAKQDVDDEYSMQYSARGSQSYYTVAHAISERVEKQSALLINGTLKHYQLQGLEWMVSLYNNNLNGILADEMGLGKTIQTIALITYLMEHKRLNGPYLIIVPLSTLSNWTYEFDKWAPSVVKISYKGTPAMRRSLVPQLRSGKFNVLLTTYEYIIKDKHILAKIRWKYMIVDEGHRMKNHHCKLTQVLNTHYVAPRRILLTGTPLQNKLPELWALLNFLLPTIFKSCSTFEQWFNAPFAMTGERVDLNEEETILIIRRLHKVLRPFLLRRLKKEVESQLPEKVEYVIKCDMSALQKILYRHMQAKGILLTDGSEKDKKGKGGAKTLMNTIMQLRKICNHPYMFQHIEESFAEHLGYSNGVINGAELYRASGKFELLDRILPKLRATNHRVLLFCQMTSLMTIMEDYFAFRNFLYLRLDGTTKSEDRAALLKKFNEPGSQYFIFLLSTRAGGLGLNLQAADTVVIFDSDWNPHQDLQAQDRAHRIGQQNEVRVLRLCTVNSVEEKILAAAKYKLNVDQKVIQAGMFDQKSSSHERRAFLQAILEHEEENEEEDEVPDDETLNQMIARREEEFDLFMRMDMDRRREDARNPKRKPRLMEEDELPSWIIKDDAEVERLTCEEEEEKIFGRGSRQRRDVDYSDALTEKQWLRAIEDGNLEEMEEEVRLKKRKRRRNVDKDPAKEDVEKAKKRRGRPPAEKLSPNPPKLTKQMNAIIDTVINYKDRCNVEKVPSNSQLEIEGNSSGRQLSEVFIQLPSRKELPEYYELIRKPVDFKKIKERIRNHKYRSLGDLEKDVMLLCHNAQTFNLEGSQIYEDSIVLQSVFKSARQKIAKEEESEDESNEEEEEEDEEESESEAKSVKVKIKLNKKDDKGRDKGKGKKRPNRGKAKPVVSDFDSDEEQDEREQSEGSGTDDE
pIC50: −log10 of the molar value.
RECORDED ENDPOINT: pIC50

Guide cases for pIC50, answers given:
CN(c1cccc(-c2ccc3cnc(CNC(=O)c4ccc5c(c4)S(=O)(=O)CCOC5)cc3n2)n1)C1CC1
7.49
O=C(NCc1cc2nc(-c3ccc4c(n3)OCC4)ccc2cn1)c1ccc2c(c1)S(=O)(=O)CCOC2
6.36
O=C(NCc1cc2nc(N3CCOc4ccc(C5CC(F)(F)C5)nc43)ccc2cn1)c1ccc2c(c1)S(=O)(=O)CCOC2
7.35
CN1CCc2c(-c3ccc4cnc(CNC(=O)c5ccc6c(c5)S(=O)(=O)CCOC6)cc4n3)cccc21
7.11
O=C(NCc1cc2nc(-c3cccc(OCC(F)F)c3)ccc2cn1)c1ccc2c(c1)S(=O)(=O)CCOC2
6.60
C[C@@H]1CN(c2cccc(-c3ccc4cnc(CNC(=O)c5ccc(C(F)F)c(S(C)(=O)=O)c5)cc4n3)n2)C[C@H](C)O1
8.10

I: O=C(NCc1cc2nc(N3CCCc4cc(C5CC5)ncc43)ccc2cn1)c1ccc2c(c1)S(=O)(=O)CCOC2
II: COc1cc2c(cn1)N(c1ccc3cnc(CNC(=O)c4ccc5c(c4)S(=O)(=O)CCOC5)cc3n1)CCC2
In: Lower value for measured pIC50? Options: I , II Indicate your choice by writing its label.
Out: II
(II: 7.37, I: 7.57)

###

molecular target: BRG-1 (Homo sapiens); construct: made in house; host or cells: High Five insect cells; test: ATPase catalytic activity of BRG-1, ADP-Glo in vitro biochemical assay; conditions: ATPase catalytic activity, ADP-Glo; 30 nM BRG-1, 400 μM ATP; read-out: BRG1 IC50
Sequence (P51532 whole entry): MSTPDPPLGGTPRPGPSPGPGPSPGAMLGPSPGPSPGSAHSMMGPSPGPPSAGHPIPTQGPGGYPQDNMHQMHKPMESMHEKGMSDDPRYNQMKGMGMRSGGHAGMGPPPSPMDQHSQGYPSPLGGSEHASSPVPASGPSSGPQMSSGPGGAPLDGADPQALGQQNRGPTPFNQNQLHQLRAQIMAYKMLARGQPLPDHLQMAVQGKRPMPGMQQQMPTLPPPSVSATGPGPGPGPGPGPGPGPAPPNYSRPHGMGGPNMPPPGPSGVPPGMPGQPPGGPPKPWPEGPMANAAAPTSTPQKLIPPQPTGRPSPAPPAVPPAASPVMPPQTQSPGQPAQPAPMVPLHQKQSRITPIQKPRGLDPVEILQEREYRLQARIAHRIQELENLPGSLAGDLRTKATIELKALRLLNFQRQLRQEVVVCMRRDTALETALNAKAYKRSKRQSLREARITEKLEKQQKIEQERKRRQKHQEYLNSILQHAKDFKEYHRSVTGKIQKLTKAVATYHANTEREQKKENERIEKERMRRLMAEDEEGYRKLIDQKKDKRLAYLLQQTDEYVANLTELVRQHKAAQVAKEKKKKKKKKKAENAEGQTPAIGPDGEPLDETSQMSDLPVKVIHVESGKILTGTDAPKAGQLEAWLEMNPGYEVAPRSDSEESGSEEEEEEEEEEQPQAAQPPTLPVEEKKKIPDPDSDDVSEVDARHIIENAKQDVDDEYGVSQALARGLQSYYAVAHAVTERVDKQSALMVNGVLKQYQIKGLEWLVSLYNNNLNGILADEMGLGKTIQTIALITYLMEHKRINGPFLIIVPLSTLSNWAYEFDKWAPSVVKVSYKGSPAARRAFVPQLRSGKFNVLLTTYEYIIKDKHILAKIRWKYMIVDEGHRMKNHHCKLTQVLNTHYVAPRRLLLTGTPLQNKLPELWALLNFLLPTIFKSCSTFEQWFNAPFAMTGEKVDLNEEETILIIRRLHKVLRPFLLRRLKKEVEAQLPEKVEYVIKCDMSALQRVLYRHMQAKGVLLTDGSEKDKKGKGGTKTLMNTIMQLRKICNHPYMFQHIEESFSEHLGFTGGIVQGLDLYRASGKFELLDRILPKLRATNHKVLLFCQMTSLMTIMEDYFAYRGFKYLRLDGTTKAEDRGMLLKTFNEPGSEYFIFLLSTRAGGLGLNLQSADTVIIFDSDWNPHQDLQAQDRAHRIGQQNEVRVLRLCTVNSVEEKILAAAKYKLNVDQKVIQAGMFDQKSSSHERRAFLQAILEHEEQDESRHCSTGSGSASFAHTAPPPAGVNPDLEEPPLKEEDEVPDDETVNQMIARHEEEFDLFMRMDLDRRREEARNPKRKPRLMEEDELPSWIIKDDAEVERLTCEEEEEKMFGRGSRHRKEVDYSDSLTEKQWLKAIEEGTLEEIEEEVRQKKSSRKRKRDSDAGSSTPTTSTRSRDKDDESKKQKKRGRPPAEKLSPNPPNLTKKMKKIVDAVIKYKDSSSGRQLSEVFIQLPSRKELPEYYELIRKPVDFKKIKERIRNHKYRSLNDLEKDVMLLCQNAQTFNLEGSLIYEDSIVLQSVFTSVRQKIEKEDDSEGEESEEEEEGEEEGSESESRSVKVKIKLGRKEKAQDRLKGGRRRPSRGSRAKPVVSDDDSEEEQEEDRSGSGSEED
RECORDED ENDPOINT: IC50 (nM)

The cases that follow already have their IC50 on record.
CCO[C@@H](C)c1ccc2c(n1)N(c1ccc3cnc(CNC(=O)c4ccc5c(c4)S(=O)(=O)CCOC5)cc3n1)CCC2
2530
O=C(NCc1cc2nc(-c3cccc([C@@]45CCOCC4C5)n3)ccc2cn1)c1ccc2c(c1)S(=O)(=O)CCOC2 (stereo partly shown)
162
CCOc1ccnc2c1CCCN2c1ccc2cnc(CNC(=O)c3ccc4c(c3)S(=O)(=O)CCOC4)cc2n1
43.8
CC(F)(F)CN1CCOc2c(-c3ccc4cnc(CNC(=O)c5ccc6c(c5)S(=O)(=O)CCOC6)cc4n3)cccc21
189
O=C(NCc1cc2nc(N3CCCc4ccc(C(F)F)cc43)ccc2cn1)c1ccc2c(c1)S(=O)(=O)CCOC2
120

I: C[C@@H]1CN(c2cccc(-c3ccc4nnc(CNC(=O)c5ccc(Cl)c(S(C)(=O)=O)c5)cc4n3)n2)C[C@H](C)O1
II: CO[C@@H]1CCS(=O)(=O)c2cc(C(=O)NCc3cc4nc(-c5cccc(N6C[C@@H](C)O[C@@H](C)C6)n5)ccc4cn3)ccc2C1
In: Look at I and II . Which one has the lower recorded IC50 number? I would appreciate it if you answered with the label of your choice.
Out: II
(II: 31.7 nM, I: 69.7 nM)

I: Cc1cnc2c(c1C)CCCN2c1ccc2cnc(CNC(=O)c3ccc4c(c3)S(=O)(=O)CCOC4)cc2n1
II: CS(=O)(=O)c1cc(C(=O)NCc2cc3nc(-c4cn([C@H]5C[C@H](F)C5)nc4OC(F)F)ccc3cn2)ccc1C(F)F
III: C[C@@H]1CN(c2cccc(-c3ccc4cnc(CNC(=O)c5ccc6c(c5)S(=O)(=O)[C@H](C)CC6)cc4n3)n2)C[C@H](C)O1
In: Rank the 3 molecules: largest IC50 first, smallest last. List the labels in the requested order.
Out: II, III, I
(II: 2560 nM, III: 238 nM, I: 76.4 nM)
